Measured MIC values are reported for all entries that follow.
Test system: Streptococcus mitis
Assay: Antibacterial activity against Streptococcus mitis ATCC 33399 after 24 to 96 hrs by well microplate assay
Type: functional
Where a SMILES comes first, the peptide text is derived from it. [ ]: non-standard residue; d: D form. The star is where a group is joined. Phe(4-NH2) = Nc1ccc(C[C@H](N)C(=O)O)cc1; Orn = NCCC[C@H](N)C(=O)O; Propionyl = CCC(=O)*
QUANTITY_NAME: MIC (µg/mL)

COMPOUND: CC(=O)Nc1ccc(C[C@@H]2NC(=O)[C@H](CC(C)C)NC(=O)[C@H](CCCN)NC(=O)[C@H](C(C)C)NC(=O)[C@@H]3CCCN3C(=O)[C@H](Cc3ccccc3)NC(=O)[C@H](CC(C)C)NC(=O)[C@H](CCCN)NC(=O)[C@H](C(C)C)NC(=O)[C@@H]3CCCN3C2=O)cc1 (cyclo(FPV[Orn]L[Phe(4-NH2)](Ac)PV[Orn]L))
TARGET_OR_TEST_SYSTEM: Streptococcus mitis
QUANTITY_NAME: MIC
READOUT_NUMBER: 16
//
COMPOUND: CCC(=O)Nc1ccc(C[C@@H]2NC(=O)[C@H](CC(C)C)NC(=O)[C@H](CCCN)NC(=O)[C@H](C(C)C)NC(=O)[C@@H]3CCCN3C(=O)[C@H](Cc3ccccc3)NC(=O)[C@H](CC(C)C)NC(=O)[C@H](CCCN)NC(=O)[C@H](C(C)C)NC(=O)[C@@H]3CCCN3C2=O)cc1 (cyclo(FPV[Orn]L[Phe(4-NH2)](Propionyl)PV[Orn]L))
TARGET_OR_TEST_SYSTEM: Streptococcus mitis
QUANTITY_NAME: MIC
READOUT_NUMBER: 16
//
COMPOUND: CC(C)C[C@@H]1NC(=O)[C@H](CCCN)NC(=O)[C@H](C(C)C)NC(=O)[C@@H]2CCCN2C(=O)[C@@H](Cc2ccccc2)NC(=O)[C@H](CC(C)C)NC(=O)[C@H](CCCN)NC(=O)[C@H](C(C)C)NC(=O)[C@@H]2CCCN2C(=O)[C@@H](Cc2ccccc2)NC1=O [GRAMICIDIN S] (cyclo(L[dF]PV[Orn]L[dF]PV[Orn]))
TARGET_OR_TEST_SYSTEM: Streptococcus mitis
QUANTITY_NAME: MIC
READOUT_NUMBER: 4

====

Test system: Enterococcus faecalis
Test: Antibacterial activity against Enterococcus faecalis 1131 after 24 to 96 hrs by well microplate assay
Type: functional
*1 amine or outer side, *2 acyl side, *3 side chain or, on linkers, in order; H or OH if unused. Where a SMILES comes first, the peptide text is derived from it. [ ]: non-standard residue; d: D form. The star is where a group is joined. X2 = C[N+](C)(C)c1ccc(C[C@H](N[*:1])C(=O)[*:2])cc1; Phe(4-NH2) = Nc1ccc(C[C@H](N)C(=O)O)cc1; Orn = NCCC[C@H](N)C(=O)O; PhAc = O=C(Cc1ccccc1)*
Measured MIC values are reported for all entries that follow.

MOLECULE: CC(C)C[C@@H]1NC(=O)[C@H](CCCN)NC(=O)[C@H](C(C)C)NC(=O)[C@@H]2CCCN2C(=O)[C@H](Cc2ccccc2)NC(=O)[C@H](CC(C)C)NC(=O)[C@H](CCCN)NC(=O)[C@H](C(C)C)NC(=O)[C@@H]2CCCN2C(=O)[C@H](Cc2ccc([N+](C)(C)C)cc2)NC1=O.[I-] (cyclo(FPV[Orn]L[X2]PV[Orn]L))
TARGET_OR_TEST_SYSTEM: Enterococcus faecalis
READOUT_UNIT: mg/L
QUALIFIER_SIGN: >
MIC: 64
//
MOLECULE: CC(C)C[C@@H]1NC(=O)[C@H](CCCN)NC(=O)[C@H](C(C)C)NC(=O)[C@@H]2CCCN2C(=O)[C@@H](Cc2ccccc2)NC(=O)[C@H](CC(C)C)NC(=O)[C@H](CCCN)NC(=O)[C@H](C(C)C)NC(=O)[C@@H]2CCCN2C(=O)[C@@H](Cc2ccccc2)NC1=O [GRAMICIDIN S] (cyclo(L[dF]PV[Orn]L[dF]PV[Orn]))
TARGET_OR_TEST_SYSTEM: Enterococcus faecalis
READOUT_UNIT: mg/L
QUALIFIER_SIGN: =
MIC: 16
//
MOLECULE: CC(C)C[C@@H]1NC(=O)[C@H](CCCN)NC(=O)[C@H](C(C)C)NC(=O)[C@@H]2CCCN2C(=O)[C@H](Cc2ccccc2)NC(=O)[C@H](CC(C)C)NC(=O)[C@H](CCCN)NC(=O)[C@H](C(C)C)NC(=O)[C@@H]2CCCN2C(=O)[C@H](Cc2ccc(NC(=O)Cc3ccccc3)cc2)NC1=O (cyclo(FPV[Orn]L[Phe(4-NH2)](PhAc)PV[Orn]L))
TARGET_OR_TEST_SYSTEM: Enterococcus faecalis
READOUT_UNIT: mg/L
QUALIFIER_SIGN: =
MIC: 32
